# test.system: Angiogenin (UniProt P03950)
# Sequence (P03950 25-147): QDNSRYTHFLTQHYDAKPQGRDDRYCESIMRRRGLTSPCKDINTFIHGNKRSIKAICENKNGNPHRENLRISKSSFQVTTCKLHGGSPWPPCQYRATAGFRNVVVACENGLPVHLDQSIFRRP
# assay: filter
# experimental.parameters: 5-BrdU replaces T; apparent photocrosslink KD; plateau 37%; rate 0.62

seq.string	quantity.unit	Kd
ATATATATGGGAGGACGATGCGGCACCAAAAGGTGGTCTTAGCCTAATTATGGACGTGTCCACCAGACGACGAGCGGGAAAAAAAA [Angiogenin pool 011 clone 27]	nM	0.3

* * *

# test.system: Kininogen (UniProt P01042)
# Sequence: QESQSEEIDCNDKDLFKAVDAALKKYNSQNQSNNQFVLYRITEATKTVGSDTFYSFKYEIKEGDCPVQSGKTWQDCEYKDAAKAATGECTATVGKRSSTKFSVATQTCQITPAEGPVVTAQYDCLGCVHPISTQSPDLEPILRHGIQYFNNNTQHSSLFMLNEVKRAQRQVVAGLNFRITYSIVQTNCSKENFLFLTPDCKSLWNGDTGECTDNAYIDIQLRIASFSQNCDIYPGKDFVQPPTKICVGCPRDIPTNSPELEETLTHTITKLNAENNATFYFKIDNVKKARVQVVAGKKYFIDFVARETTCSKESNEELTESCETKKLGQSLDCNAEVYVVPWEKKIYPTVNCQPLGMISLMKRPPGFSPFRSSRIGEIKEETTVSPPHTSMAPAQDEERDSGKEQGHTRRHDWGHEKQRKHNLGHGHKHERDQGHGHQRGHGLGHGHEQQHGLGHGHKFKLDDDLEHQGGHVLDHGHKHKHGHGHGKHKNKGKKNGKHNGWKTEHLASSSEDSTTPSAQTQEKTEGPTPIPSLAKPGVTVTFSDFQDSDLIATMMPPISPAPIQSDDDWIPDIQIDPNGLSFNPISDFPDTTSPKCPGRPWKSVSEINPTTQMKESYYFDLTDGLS
# assay: filter
# experimental.parameters: 5-BrdU replaces T; apparent photocrosslink KD; plateau 64%
pKd: −log10 of the molar value.

seq.string	pKd
ATATATATGGGAGGACGATGCGGGACGCTAGTACCCTGGCTGGCTTGGTTGGGCAGACGACGAGCGGGAAAAAAAA [Kininogen pool 046 clone 31]	8.15

* * *

# test.system: Hepatocyte Growth Factor (HGF) (UniProt P14210+P14210)
# Sequence (P14210 32-494, chain 1 of 2): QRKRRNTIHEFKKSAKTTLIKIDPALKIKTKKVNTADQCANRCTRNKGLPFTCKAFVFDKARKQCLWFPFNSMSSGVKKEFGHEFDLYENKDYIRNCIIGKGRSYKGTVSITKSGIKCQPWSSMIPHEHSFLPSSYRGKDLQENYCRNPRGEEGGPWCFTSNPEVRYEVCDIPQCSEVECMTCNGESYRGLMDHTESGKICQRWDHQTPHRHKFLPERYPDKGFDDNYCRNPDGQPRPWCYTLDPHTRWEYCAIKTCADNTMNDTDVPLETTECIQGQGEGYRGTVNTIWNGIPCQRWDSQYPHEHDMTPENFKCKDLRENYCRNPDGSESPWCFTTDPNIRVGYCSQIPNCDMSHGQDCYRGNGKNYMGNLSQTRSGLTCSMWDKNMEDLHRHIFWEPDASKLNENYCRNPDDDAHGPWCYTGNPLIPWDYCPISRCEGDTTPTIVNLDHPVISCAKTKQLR
# Sequence (P14210 495-728, chain 2 of 2): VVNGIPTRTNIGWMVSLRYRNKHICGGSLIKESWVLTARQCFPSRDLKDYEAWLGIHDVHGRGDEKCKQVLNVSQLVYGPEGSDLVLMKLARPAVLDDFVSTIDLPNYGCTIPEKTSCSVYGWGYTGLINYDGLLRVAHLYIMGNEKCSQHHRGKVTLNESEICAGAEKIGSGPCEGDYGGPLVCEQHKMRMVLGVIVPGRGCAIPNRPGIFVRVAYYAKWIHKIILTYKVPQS
# assay: filter
# experimental.parameters: 5-BrdU replaces T; apparent photocrosslink KD; plateau 73%
pKd: −log10 of the molar value.

seq.string	test.system	pKd
ATATATATGGGAGGACGATGCGGGACGACTAGCCTAGTGCCCTTACGATCACCCAGACGACGAGCGGGAAAAAAAA [HGF pool 107 clone 23]	Hepatocyte Growth Factor (HGF) (UniProt P14210+P14210)	9.28

* * *

# test.system: Coagulation Factor IX (UniProt P00740)
# assay: filter
# experimental.parameters: 5-BrdU replaces T; apparent photocrosslink KD; plateau 75%

seq.string	Kd
ATATATATGGGAGGACGATGCGGGCGTCTGGGATTTGGACTTCTTCGCTAGCTCAGACGACGAGCGGGAAAAAAAA [Factor IX pool 87 clone 50]	6.2 nM

* * *

# test.system: beta-Nerve Growth Factor (beta-NGF)
# assay: filter
# experimental.parameters: 5-BrdU replaces T; apparent photocrosslink KD; plateau 58%; rate 0.59

seq.string	quantity.unit	Kd
ATATATATGGGAGGACGATGCGGGACCAAATACCAACTTCACATCACCTTTCTTATTCTCCGGCAGACGACGAGCGGGAAAAAAAA [beta-NGF pool 031 clone 44]	nM	2.2
